- System: Liver
- experiment-summary: Toxicity in mouse assessed as effect on iron level in liver per gram of organ at 0.4 mmol/kg, ip qd for 5 days
- Assay type: organism-based
- assay-setup: in vivo, 120 h
Activity: recorded values
Write it as a number; the unit µg/g goes unstated.

compound | experimental-system | quantity | uom | readout-value
CC[C@H](C)[C@H](NC(=O)C1SC(C)(C)SC1C(=O)O)C(=O)O (stereo partly drawn) | Liver | Activity | µg/g | 152.94
CC1(C)SC(C(=O)O)C(C(=O)N[C@@H](CCC(=O)O)C(=O)O)S1 (stereo partly drawn) | Liver | Activity | µg/g | 154.4
CC1(C)SC(C(=O)O)C(C(=O)NCC(=O)O)S1 (stereo not drawn) | Liver | Activity | µg/g | 154.3
CC1(C)SC(C(=O)O)C(C(=O)N[C@@H](CC(N)=O)C(=O)O)S1 (stereo partly drawn) | Liver | Activity | µg/g | 153.07
CC1(C)SC(C(=O)O)C(C(=O)N[C@@H](CCC(N)=O)C(=O)O)S1 (stereo partly drawn) | Liver | Activity | µg/g | 153.02

[ask] Param item = CC1(C)SC(C(=O)O)C(C(=O)N[C@@H](CO)C(=O)O)S1 (stereo partly drawn) ; retrieve measured Activity.
[reply] 153.39

[ask] Can you handle CC1(C)SC(C(=O)O)C(C(=O)O)S1 (stereo not drawn) next?
[reply] 152.9

[ask] Can you handle CC1(C)SC(C(=O)O)C(C(=O)N[C@@H](Cc2c[nH]c3ccccc23)C(=O)O)S1 (stereo partly drawn) next?
[reply] 153.84

[ask] Can you handle CSCC[C@H](NC(=O)C1SC(C)(C)SC1C(=O)O)C(=O)O (stereo partly drawn) next?
[reply] 153.33

----------
Activity: recorded values
- Tested on: Brain
- experiment-summary: Toxicity in mouse assessed as effect on zinc level in brain per gram of organ at 0.4 mmol/kg, ip qd for 5 days
- Assay type: organism-based
- assay-setup: in vivo, 120 h
Write it as a number; the unit µg/g goes unstated.

molecule | Activity / µg/g
CC1(C)SC(C(=O)O)C(C(=O)N[C@@H](CO)C(=O)O)S1 (stereo partly drawn) | 34.09
CC1(C)SC(C(=O)O)C(C(=O)O)S1 (stereo not drawn) | 34.54

[ask] Param item = CC1(C)SC(C(=O)O)C(C(=O)NCC(=O)O)S1 (stereo not drawn) ; retrieve measured Activity.
[reply] 34.31

----------
Activity: recorded values
- Test system: Liver
- experiment-summary: Toxicity in mouse assessed as effect on zinc level in liver per gram of organ at 0.4 mmol/kg, ip qd for 5 days
- Assay type: organism-based
- assay-setup: in vivo, 120 h
Write it as a number; the unit µg/g goes unstated.

compound | Activity / µg/g
CC1(C)SC(C(=O)O)C(C(=O)N[C@@H](CC(=O)O)C(=O)O)S1 (stereo not given in full) | 37.69
CC1(C)SC(C(=O)O)C(C(=O)N[C@@H](Cc2ccccc2)C(=O)O)S1 (stereo not given in full) | 36.69
CC1(C)SC(C(=O)O)C(C(=O)N[C@@H](CC(N)=O)C(=O)O)S1 (stereo not given in full) | 37.92
CC[C@H](C)[C@H](NC(=O)C1SC(C)(C)SC1C(=O)O)C(=O)O (stereo not given in full) | 36.79

# context switch: different compound, same Activity
[ask] Param item = CC(C)[C@H](NC(=O)C1SC(C)(C)SC1C(=O)O)C(=O)O (stereo not given in full) ; retrieve measured Activity.
[reply] 36.49
